The measurements presented in this section are drawn from ChEMBL document CHEMBL1961873.

- measurementTarget: Mitogen-activated protein kinase 13 (Homo sapiens);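 further: mean inhibition of p38delta, screened as part of the GSK PKIS kinase inhibitor set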
- testSettings: at 1 µM
readout: inhibition (%)

                                 itemsmiles  reportedmeasurement
0  NC(=O)c1cccc(Nc2nccc(Nc3cccc4[nH]ncc34)n2)c1                 1.26
1  COc1cccc(-n2ncc3c(N/N=C/c4cccc(F)c4)ncnc32)c1                 6.21
2  CCN1CCC(CC(=O)Nc2n[nH]c3nc(-c4cccs4)c(Br)cc23)CC1                -1.98

---

- measurementTarget: Vascular endothelial growth factor receptor 1 (Homo sapiens) (UniProt P17948);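 further: values are mean percent inhibition of FLT1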
- Sequence (P17948 whole entry): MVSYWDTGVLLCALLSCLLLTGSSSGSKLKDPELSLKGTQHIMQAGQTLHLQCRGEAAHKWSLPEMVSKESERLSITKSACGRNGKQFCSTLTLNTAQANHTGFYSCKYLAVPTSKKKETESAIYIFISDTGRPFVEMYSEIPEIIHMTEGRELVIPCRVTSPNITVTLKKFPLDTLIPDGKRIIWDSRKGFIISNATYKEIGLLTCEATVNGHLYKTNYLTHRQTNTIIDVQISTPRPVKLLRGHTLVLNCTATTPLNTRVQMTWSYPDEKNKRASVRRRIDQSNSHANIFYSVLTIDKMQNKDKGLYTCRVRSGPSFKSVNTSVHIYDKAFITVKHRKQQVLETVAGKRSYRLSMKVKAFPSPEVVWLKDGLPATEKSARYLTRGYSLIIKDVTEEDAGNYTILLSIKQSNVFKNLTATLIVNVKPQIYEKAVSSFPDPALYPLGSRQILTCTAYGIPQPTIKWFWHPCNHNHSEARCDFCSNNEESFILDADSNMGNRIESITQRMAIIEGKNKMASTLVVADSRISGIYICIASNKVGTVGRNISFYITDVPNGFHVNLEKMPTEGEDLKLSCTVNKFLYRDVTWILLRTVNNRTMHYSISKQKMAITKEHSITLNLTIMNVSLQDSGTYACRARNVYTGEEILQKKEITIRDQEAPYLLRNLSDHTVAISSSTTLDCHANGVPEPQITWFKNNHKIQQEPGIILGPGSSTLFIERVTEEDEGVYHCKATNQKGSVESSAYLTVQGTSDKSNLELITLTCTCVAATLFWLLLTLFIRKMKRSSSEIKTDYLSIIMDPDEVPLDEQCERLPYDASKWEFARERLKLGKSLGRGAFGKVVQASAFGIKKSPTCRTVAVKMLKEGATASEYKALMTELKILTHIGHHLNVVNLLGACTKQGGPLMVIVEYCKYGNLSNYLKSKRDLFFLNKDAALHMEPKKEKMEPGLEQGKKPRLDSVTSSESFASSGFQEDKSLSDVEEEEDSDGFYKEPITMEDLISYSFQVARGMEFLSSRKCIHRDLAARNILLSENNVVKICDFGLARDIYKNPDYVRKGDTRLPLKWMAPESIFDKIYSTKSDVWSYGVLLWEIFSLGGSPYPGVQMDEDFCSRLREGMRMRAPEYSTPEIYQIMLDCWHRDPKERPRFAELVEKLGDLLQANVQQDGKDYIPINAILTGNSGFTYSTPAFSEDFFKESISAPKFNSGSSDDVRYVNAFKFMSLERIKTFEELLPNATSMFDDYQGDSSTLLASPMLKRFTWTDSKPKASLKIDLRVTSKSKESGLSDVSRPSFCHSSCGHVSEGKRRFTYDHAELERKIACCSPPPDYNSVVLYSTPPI
- testSettings: at 0.1 µM
readout: inhibition (%)

In [3]: df
Out[3]:
                                   molecule  reportedmeasurement
0   COc1ccc(COc2ccc(Cc3cnc(N)nc3N)cc2OC)cc1                 1.03
1  COC(=O)Nc1nc2cc(Oc3cccc(NC(=O)Nc4cc(C(F)(F)F)ccc4F)c3)ccc2[nH]1                 2.97
2  c1cnn2ncc(-c3ccnc(Nc4ccc5c(c4)OCCO5)n3)c2c1                 8.17
3  COc1cc2ncn(-c3cc(OCc4ccccc4Cl)c(C(N)=O)s3)c2cc1OC                 0.69
4  CC1=C(C(=O)Nc2ccc3[nH]ncc3c2)C(c2ccc3ccccc3c2)CC(=O)N1 (stereo not drawn)                 2.44
5  COc1cccc(-n2ncc3c(N/N=C/c4cccc(F)c4)ncnc32)c1                -0.74
6  Cc1nnc(-c2ccc(C)c(-c3ccc(C(=O)Nc4cccc(C#N)c4)cc3)c2)o1                -0.39
7  Nc1ncnc2occ(-c3ccc(NC(=O)Nc4cccc(C(F)(F)F)c4)cc3)c12                   56

---

- measurementTarget: Serine/threonine-protein kinase DCLK2 (Homo sapiens) (UniProt Q8N568);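 further: each value is a mean percent inhibition of DCLK2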
- Sequence (Q8N568 whole entry): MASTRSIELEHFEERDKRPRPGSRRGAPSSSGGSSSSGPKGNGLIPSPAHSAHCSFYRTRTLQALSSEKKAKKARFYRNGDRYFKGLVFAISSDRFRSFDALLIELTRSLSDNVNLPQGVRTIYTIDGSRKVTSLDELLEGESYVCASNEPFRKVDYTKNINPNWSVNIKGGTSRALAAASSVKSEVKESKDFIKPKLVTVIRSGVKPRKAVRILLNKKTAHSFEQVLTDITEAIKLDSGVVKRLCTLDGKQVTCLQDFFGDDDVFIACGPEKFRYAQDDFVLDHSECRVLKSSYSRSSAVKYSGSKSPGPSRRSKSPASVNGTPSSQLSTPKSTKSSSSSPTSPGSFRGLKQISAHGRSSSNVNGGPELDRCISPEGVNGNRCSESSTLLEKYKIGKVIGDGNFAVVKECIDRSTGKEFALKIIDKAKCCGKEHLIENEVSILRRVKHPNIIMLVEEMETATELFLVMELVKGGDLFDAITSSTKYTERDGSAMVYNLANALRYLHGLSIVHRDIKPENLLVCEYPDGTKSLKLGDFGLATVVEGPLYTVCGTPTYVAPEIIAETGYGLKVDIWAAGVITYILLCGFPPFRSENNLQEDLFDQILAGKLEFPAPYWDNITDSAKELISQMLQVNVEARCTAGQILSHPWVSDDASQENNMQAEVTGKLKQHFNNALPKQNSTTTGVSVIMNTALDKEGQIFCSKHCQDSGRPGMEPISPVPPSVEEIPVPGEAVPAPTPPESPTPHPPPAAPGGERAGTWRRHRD
- testSettings: at 1 µM
readout: inhibition (%)

>>> print(df.to_string())
                                  itemsmiles  unitstext  reportedmeasurement
 0   COc1ccc(COc2ccc(Cc3cnc(N)nc3N)cc2OC)cc1          %                 8.82
 1  Fc1cccc(COc2ccc(Nc3ncnc4sc(-c5cccs5)cc34)cc2Cl)c1          %                 2.62
 2  COc1cc2ncn(-c3cc(O[C@H](C)c4ccccc4Cl)c(C(N)=O)s3)c2cc1OC          %                 1.35
 3  O=C1NC(=O)C(c2cccc(Cl)c2)=C1Nc1ccc(O)c(Cl)c1          %                -0.92
 4  NC(=O)c1ccc(-c2nc(-c3ccccn3)c(-c3ccc4c(c3)OCO4)[nH]2)cc1          %                -8.11
 5  CCn1c(-c2nonc2N)nc2c(C#CC(C)(C)O)nc(OC[C@@H](N)c3ccccc3)cc21          %                 1.63
 6  O=C1NC(=O)C(c2ccc(Cl)cc2)=C1Nc1ccc(Cl)c(C(=O)O)c1          %                -0.41
 7  CS(=O)(=O)Nc1ccc(N/C=C2\C(=O)Nc3ccccc32)cc1          %                -4.45
 8  NCc1ccc(-c2nc(-c3ccc(Cl)c(O)c3)c(-c3ccncc3)[nH]2)cc1          %                 5.14
 9  c1cnn2ncc(-c3ccnc(Nc4ccc5c(c4)OCCO5)n3)c2c1          %                 1.89
10  COc1cc2c(cc1Nc1nc(N3CCc4ccccc43)c3cc[nH]c3n1)N(C(=O)CN(C)C)CC2          %                 -1.1
11  Nc1ncnc2occ(-c3ccc(NC(=O)Nc4cc(C(F)(F)F)cc(C(F)(F)F)c4)cc3)c12          %                 1.34
12    N#Cc1c(NC(=O)c2cccc3ccccc23)sc2c1CCCC2          %                 0.08
13  COC(=O)Nc1nc2cc(Oc3cccc(NC(=O)Nc4cc(C(F)(F)F)ccc4F)c3)ccc2[nH]1          %                -0.15
14  COc1cc2ncn(-c3cc(O[C@@H](C)c4ccccc4Cl)c(C(N)=O)s3)c2cc1OC          %                  3.6
15       CCn1c(-c2nonc2N)nc2c(N3CCCC3)nccc21          %                 4.26
16  CC(=O)Nc1cccc(C#Cc2cncnc2Nc2ccc(OCc3cccc(F)c3)c(Cl)c2)n1          %                 7.65
17  CS(=O)(=O)CCN(CC#N)Cc1ccc(-c2ccc3ncnc(Nc4ccc(OCc5cccc(F)c5)c(Cl)c4)c3c2)o1          %                -2.59
18             COc1ccccc1Nc1ncc(-c2ccccc2)o1          %                 0.52
19  [O-][S+]1CCN(Cc2ccc(-c3ccc4ncnc(Nc5ccc(OCc6ccccc6)c(F)c5)c4c3)o2)CC1          %                 3.92
20  O=C(Nc1n[nH]c2nc(-c3ccco3)c(Br)cc12)C1CC1          %                 1.73
21                CCn1c(-c2nonc2N)nc2ccncc21          %                -1.48
22  COc1cccc(-n2ncc3c(N/N=C/c4cccc(F)c4)ncnc32)c1          %                 1.59
